- Test system: SB.mhdgc-1
- Assay notes: viability at highest tested concentration (MAXR) relative to DMSO; higher = less cytotoxic
- Experimental conditions: SB.mhdgc-1 (hereditary c.1380delA CDH1 gastric cancer)
Counter-ions that a name gives are not always drawn.
Catalogue of viability values

Molecule	viability, %
C[C@](N)(Cc1ccc(O)c(O)c1)C(=O)O [Methyldopa] (top concentration 46.0829 µM)	63.7
CNC(=O)c1ccccc1Nc1nc(Nc2ccc(N3CCOCC3)cc2OC)ncc1Cl [NVP-TAE226] (top concentration 46.0829 µM)	21.2
COC1=NC(=NC(=C1N\C2=N\CCN2)Cl)C [Moxonidine hydrochloride hydrate] (top concentration 46.0829 µM)	77.7
Nc1ccc(C(=O)c2cc3c(ccc4ccccc43)[nH]2)cc1 [IPFK2] (top concentration 46.0829 µM)	16.9
O.O.CCN1CCN(C(=O)N[C@H](C(=O)N[C@H]2[C@@H]3SC\C(=C(/N3C2=O)C(O)=O)CSC4=NN=N[N]4C)C5=CC=C(O)C=C5)C(=O)C1=O [Cefoperazone sodium] (top concentration 13.52 µM)	125
CC(C)C1=C(O)C=C(O)C(=C1)C/2=N/NC(=O)N2C3=CC4=C(C=C3)[N](C)C=C4 [Ganetespib] (top concentration 46.0829 µM)	52.9
CC(C)C[C@H](CN)CC(=O)O [Pregabalin] (top concentration 46.0829 µM)	117
O=C(O)C1CCCN(CCC=C(c2ccccc2)c2ccccc2)C1 (stereo not drawn) (top concentration 46.0829 µM)	47.8
CCN(C)C(=O)Oc1cccc([C@H](C)N(C)C)c1 [Rivastigmine tartrate] (top concentration 46.0829 µM)	106
CC(C)c1cc(C(=O)N2Cc3ccc(CN4CCN(C)CC4)cc3C2)c(O)cc1O (top concentration 46.0829 µM)	9.31
COc1cc2cc(c1Cl)N(C)C(=O)C[C@H](OC(=O)C(C)C)[C@]1(C)O[C@@H]1[C@H](C)[C@@H]1C[C@@](O)(NC(=O)O1)[C@H](OC)/C=C/C=C(\C)C2 [Ansamitocin P3] (top concentration 46.0829 µM)	40.3
CCCCN(CCCC)CC(O)c1cc(Cl)cc2c1-c1ccc(Cl)cc1/C2=C/c1ccc(Cl)cc1 (stereo not drawn) [Lumefantrine] (top concentration 46.0829 µM)	12
CC(=O)OCC(=O)[C@@]12\N=C(C)/O[C@@H]1C[C@H]3[C@@H]4CCC/5=C/C(=O)/C=C\[C@]5(C)[C@H]4[C@@H](O)C[C@]23C [Deflazacort] (top concentration 46.0829 µM)	97.3
CC(C[N+](C)(C)C)OC(N)=O (stereo not drawn) [Bethanechol chloride] (top concentration 46.0829 µM)	119
CC(=O)C\1=C(/C)C2=CN=C(NC3=CC=C(C=N3)N4CCNCC4)N=C2N(C5CCCC5)C1=O (top concentration 46.0829 µM)	0.926
COc1ccc(CCN(C)CCCOc2ccc([S+](=O)([O-])c3[nH]c4ccccc4c3C(C)C)cc2)cc1OC (top concentration 46.0829 µM)	66.8
CC(C)CC(=O)Nc1n[nH]c2c1CN(C(=O)C1CCN(C)CC1)C2(C)C (top concentration 46.0829 µM)	73.2
C[C@@H]1O[C@@H](O[C@H]2C[C@@H](O)[C@]3(CO)[C@H]4[C@H](O)C[C@]5(C)[C@@H](C6=CC(=O)OC6)CC[C@]5(O)[C@@H]4CC[C@]3(O)C2)[C@H](O)[C@H](O)[C@H]1O [G-Strophanthin] (top concentration 46.0829 µM)	22.5
O=C1Nc2ccccc2/C1=C1\Nc2ccccc2C1=O [Indirubin] (top concentration 46.0829 µM)	48
CC(C)C[C@H](NC(=O)[C@H](Cc1ccccc1)NC(=O)c1cnccn1)B(O)O [Bortezomib] (top concentration 46.0829 µM)	3.74
CC(C)c1onc(-c2c(Cl)cccc2Cl)c1COc1ccc(/C=C/c2cccc(C(=O)O)c2)c(Cl)c1 [GW-4064X] (top concentration 46.0829 µM)	80.6
CN(C)/N=N/c1nc[nH]c1C(N)=O [Dacarbazine] (top concentration 46.0829 µM)	113
C[C@@H]1CC[C@@]2(CC[C@]3(C)\C(=C/C[C@@H]4[C@@]5(C)CC[C@H](O)C(C)(C)[C@@H]5CC[C@@]34C)[C@@H]2[C@H]1C)C(O)=O [Ursolic acid] (top concentration 92.1659 µM)	3.71

----------
- System: SB.msgc-1
- Assay notes: viability at highest tested concentration (MAXR) relative to DMSO; higher = less cytotoxic
- Experimental conditions: SB.msgc-1 (sporadic gastric cancer)
Where a name gives a salt, the structure may show the parent alone.
Please assign 0 whenever viability is at or above 80%, and 1 whenever it is below.

Compound	Label value
O=S(=O)([O-])CCS.[Na+] [Mesna] (top concentration 46.0829 µM)	0
CCOC(=O)\C1=C\[C@@H](OC(CC)CC)[C@H](NC(C)=O)[C@@H](N)C1 [Oseltamivir phosphate] (top concentration 46.0829 µM)	0
CC(=O)[C@]1(O)Cc2c(O)c3c(c(O)c2[C@@H](O[C@H]2C[C@H](N)[C@H](O)[C@H](C)O2)C1)C(=O)c1ccccc1C3=O [Idarubicin hydrochloride] (top concentration 46.0829 µM)	1
CCn1c(C(=O)N(C2CC2)C2CC2)cc2c3c(ncn3C)c(Nc3cc(C)n(C)n3)nc21 (top concentration 46.0829 µM)	0

----------
- System: SB.msgc-1
- Assay notes: viability at highest tested concentration (MAXR) relative to DMSO; higher = less cytotoxic
- Experimental conditions: SB.msgc-1 (sporadic gastric cancer)
Please assign n whenever viability is at or above 80%, and y whenever it is below.

Molecule	Label value
C=CC[N+]1([C@H]2C[C@H]3[C@@H]4CC[C@H]5C[C@H](O)[C@@H](N6CCOCC6)C[C@]5(C)[C@H]4CC[C@]3(C)[C@H]2OC(C)=O)CCCC1 [Rocuronium bromide] (top concentration 46.0829 µM)	y
COc1cc(/C=C/C(=O)CC(=O)/C=C/c2ccc(O)c(OC)c2)ccc1O [Curcumin] (top concentration 92.1659 µM)	y
Cc1ccccc1C(=O)c1ccc(Nc2ccc(Br)cc2N)cc1Cl [EO-1428] (top concentration 46.0829 µM)	y
CC(C)OC(=O)/C1=C/N(CC(C)(C)C2=C1[NH]C3=CC=CC=C23)C(=O)C4=CC=C(F)C(=C4)F [Turofexorate isopropyl] (top concentration 46.0829 µM)	y
O=c1oc2cc(O)ccc2s1 [Tioxolone] (top concentration 46.0829 µM)	n

----------
Catalogue of viability values
- System: SB.mhdgc-1
- Assay notes: viability at highest tested concentration (MAXR) relative to DMSO; higher = less cytotoxic
- Experimental conditions: SB.mhdgc-1 (hereditary c.1380delA CDH1 gastric cancer)
Parameter: viability

Compound	Obs value
O=C1NC(=O)/C(=C\c2ccc(-c3ccc(F)cc3)o2)S1 (top concentration 46.0829 µM)	85.9%
CO[C@H]1C[C@@H]2CC[C@@H](C)[C@@](O)(O2)C(=O)C(=O)N2CCCC[C@H]2C(=O)O[C@H]([C@@H](C)C[C@@H]2CC[C@@H](O)[C@H](OC)C2)CC(=O)[C@H](C)/C=C(\C)[C@@H](O)[C@@H](OC)C(=O)[C@H](C)C[C@H](C)/C=C/C=C/C=C/1C [Sirolimus] (top concentration 46.0829 µM)	67.2%

----------
- Test system: SB.mhdgc-1
- Assay notes: AC50 for growth inhibition (viability) (log10 M); higher = less potent
- Experimental conditions: SB.mhdgc-1 (hereditary c.1380delA CDH1 gastric cancer)
Catalogue of AC50 for growth inhibition (log10 M) values
Parameter: AC50 for growth inhibition (log10 M)

Compound	Obs value
C[S+](=O)([O-])N1CCN(Cc2cc3nc(-c4cccc5[nH]ncc45)nc(N4CCOCC4)c3s2)CC1	-7.23
CN[C@@H](C)C(=O)N[C@H]1CN(C(=O)CC(C)C)CC[C@H]2CC[C@@H](C(=O)NC(c3ccccc3)c3ccccc3)N2C1=O	-5.63
CC(=O)SCC(Cc1ccccc1)C(=O)NCC(=O)OCc1ccccc1 (stereo not drawn)	-6.68
CN(C)/[N+]([O-])=N/Oc1cc(ON[N+](=O)N2CCN(C(=O)c3cc(Cc4n[nH]c(=O)c5ccccc45)ccc3F)CC2)c([N+](=O)[O-])cc1[N+](=O)[O-]	-4.68
C[C@]1(O)CC(C1)C2=NC(=C3[N]2C=CN=C3N)C4=CC5=C(C=C4)C=CC(=N5)C6=CC=CC=C6 (stereo not drawn)	-5.03
CO/C1=C/C(C)=C\[C@@H](C)[C@@H](O)[C@@H](C)C/C(C)=C\C=C/[C@H](OC)[C@@H]([C@@H](C)[C@@H](O)[C@H](C)[C@@]2(O)C[C@@H](O)[C@H](C)[C@@H](C(C)C)O2)OC1=O	-8.78
CC(C)C[C@H](NC(=O)[C@@H](NC(=O)c1cccc(-c2ccccc2)n1)[C@@H](C)O)B(O)O	-7.38
CN(C)[S+](=O)([O-])c1ccc2c(c1)C(=Cc1cc3c([nH]1)CCCC3)C(=O)N2	-5.28
C[N]1C=C(C2=C1C=CC=C2)\C3=C(\C(=O)NC3=O)C4=C5CC(CN)CC[N]5C6=C4C=CC=C6 (stereo not drawn)	-4.88
CNC(=O)c1ccc(N2C(=S)N(c3ccc(C#N)c(C(F)(F)F)c3)C(=O)C23CCC3)cc1F	-5.08
CC1=C(C)C2=C(S1)[N]3C(=NN=C3[C@H](CC(=O)OC(C)(C)C)/N=C2/C4=CC=C(Cl)C=C4)C	-5.28
C=CCNc1c(O)cc2c(O)c1C[C@@H](C)C[C@H](OC)[C@H](O)[C@@H](C)/C=C(/C)[C@H](OC(N)=O)[C@@H](OC)/C=C\C=C(\C)C(=O)N2	-6.88
O=C(NCC1CCCCN1)c1cc(OCC(F)(F)F)ccc1OCC(F)(F)F (stereo not drawn) [Flecainide]	-5.03
